- protocol: reversal of MRP1-mediated doxorubicin resistance, pilot screen, H69AR cells, doxorubicin co-treatment (AID 601)
- study-conditions: H69AR cells + 2 uM doxorubicin, CellTiter-Glo, 72 h; at 10 µM; active compounds read high
Listed next: entries and their corresponding differential viability (reversal).
Respond with the bare value in %.

Example results:
N=c1ncn(CC(O)CN2CCOCC2)c2nc(N3CCOCC3)[nH]c12 (centres undefined) : 12.4
Cc1cc(NS(=O)(=O)c2ccc(NC(=O)Nc3ccc4c(c3)OCO4)cc2)no1 : -0.555
O=C(Nc1ccc2oc(Cc3ccc(Cl)cc3)nc2c1)c1cccnc1 : -41.5
Cn1c(SCC(=O)Nc2cccc3ccccc23)nc(O)cc1=O : -5.66
CCSc1nnc(-c2ccc(OC)cc2)o1 : -10.4

Name the reported differential viability (reversal) value associated with the compound `CCOc1ccc(-c2nc(N)ncc2-c2ccccc2)c(O)c1`
-14.3

Fill in the blank: the reported differential viability (reversal) of CCN(CC)C(=O)C1CCC(CNS(=O)(=O)c2cccc3cccnc23)CC1 (centres undefined) is ____.
2.08

Given `CN1CCN(S(=O)(=O)c2ccc(NC(=O)Nc3cccc(Cl)c3)cc2)CC1` , state its recorded differential viability (reversal).
-8.79

Need differential viability (reversal), item `CCc1nnc(SCC(=O)NC2CCCCC2)nc1CC`
13.1

Please give the measured differential viability (reversal) for this compound: `O=C(Cc1ccccc1)Nc1ccc(CN2CCOCC2)cc1`
6.05
